Test system: HOP-62
Experiment: NCI tumour cell line growth inhibition, 48 h
Calls of active or inactive are those of the source. Cut-off read from the data, not from the text of the source: active = GI50 up to about 1.1 µM and inactive = higher.
Property: GI50

Use these answered entries as a reference point.
{"Molecule": "COc1cc2c(c(OC)c1)[C@H](C)N(Cc1ccccc1)C(C)C2 (some centres undefined)", "GI50": "> 100 µM (inactive)"}
{"Molecule": "COc1cc2c(NCCCCCCO[N+](=O)[O-])ncnc2c(OC)c1OC", "GI50": "26.6 µM (inactive)"}
{"Molecule": "COC(=O)[C@@H]1CC(C(C[N+](=O)[O-])c2ccc(O[Si](C)(C)C(C)(C)C)cc2)C(=O)N1C(=O)OC(C)(C)C (some centres undefined)", "GI50": "> 100 µM (inactive)"}
{"Molecule": "O=C(CCC(=O)Nc1cccc(Cl)c1)CC(=O)c1ccc(F)cc1", "GI50": "> 100 µM (inactive)"}
{"Molecule": "c1ccc2c(C3CCN(CCN4CCOCC4)C3)c[nH]c2c1 (centres undefined)", "GI50": "> 100 µM (inactive)"}

Requested read-out: GI50. Entry: COC(=O)[C@@]1(Cc2ccc(O)cc2)C[C@@H]2Cc3ccccc3N2N1 > 100 µM (inactive)

Requested read-out: GI50. Entry: Cc1c(-c2ccccc2)[nH]c2cc(Cl)ccc2c1=O 23 µM (inactive)

Requested read-out: GI50. Entry: CCOC(C)OCC#CCCBr (centres undefined) > 100 µM (inactive)

Requested read-out: GI50. Entry: COc1cc(C)cc(C(=O)OCc2ccccc2)c1C1=C(Cl)C(=O)C(Cl)=CC1=O > 10 µM (inactive)

Requested read-out: GI50. Entry: CCOC(=O)c1cc2c3ccn(Cc4ccccc4)c3c3c(C)noc3c2[nH]1 > 100 µM (inactive)

Requested read-out: GI50. Entry: C=C1C(=O)O[C@H]2C1C[C@H](O)[C@@]1(C)OC1CC[C@@]1(C)O[C@H]21 (some centres undefined) 27.6 µM (inactive)

Requested read-out: GI50. Entry: CC12C(=O)N(CCN)C(=O)C1C1c3ccccc3C2c2ccccc21 (centres undefined) > 100 µM (inactive)

Requested read-out: GI50. Entry: C=C1C(=O)O[C@H]2C/C(C=O)=C\[C@H]3O[C@H]3/C(COC(=O)C(C)C)=C/CC12 (some centres undefined) 13.6 µM (inactive)

Requested read-out: GI50. Entry: COc1ccc(/C(Cl)=C(\C=O)c2ccccc2)cc1OC 17.8 µM (inactive)

----------
Tested on: KM-20L2
Test: NCI tumour cell line growth inhibition, 48 h
Activity calls are given as the source filed them. Rule as the data show it: active = GI50 up to about 1.1 µM and inactive = higher.
Overview of reported GI50 across a group of compounds:

{"Record smiles": "O=C(CC/C(CC(=O)c1ccc(Cl)cc1)=N\\O)Nc1cccc(Cl)c1", "Experimental system": "KM-20L2", "Recorded value": "> 100 µM (inactive)"}
{"Record smiles": "CCCCOC(=O)/C(CC(=O)C=C(C)C)=N\\NS(=O)(=O)c1ccc(C)cc1", "Experimental system": "KM-20L2", "Recorded value": "> 100 µM (inactive)"}
{"Record smiles": "Cc1c(C(=O)/C=C/c2ccc3c(c2)OCO3)[n+]([O-])c2ccccc2[n+]1[O-]", "Experimental system": "KM-20L2", "Recorded value": "22.3 µM (inactive)"}

Requested read-out: GI50. Entry: Nc1ccc(C(=O)N/C(=C\c2ccc3c(c2)OCO3)c2nc3c(O)nc(S)nc3[nH]2)cc1 > 100 µM (inactive)

Requested read-out: GI50. Entry: OC1=CN=COc2ccccc21 > 100 µM (inactive)

----------
Tested on: NCI-H460
Test: NCI tumour cell line growth inhibition, 48 h
The source made the active and inactive calls. No stated cut-off is given here; in the data, active = GI50 up to about 1.1 µM and inactive = higher.
Property: GI50

Use these answered entries as a reference point.
{"Molecule": "CC(=O)N(C(C)=O)c1c(N)n(C)c(=O)[nH]c1=O", "Recorded value": "> 100 µM (inactive)"}
{"Molecule": "Sc1nc2c(c(-c3nc(S)nc4c3CCCCCCCCCC4)n1)CCCCCCCCCC2", "Recorded value": "> 100 µM (inactive)"}
{"Molecule": "C=C1C(=O)O[C@@H]2OC3(C)CCC4C(C)CCC1C42OO3 (some centres not stated)", "Recorded value": "2.38 µM (inactive)"}
{"Molecule": "O=c1c(O)c(-c2ccc(O)c(O)c2)oc2cc(O)ccc12", "Recorded value": "8.05 µM (inactive)"}
{"Molecule": "COc1ccc(/N=c2/oc3ccccc3cc2C(N)=O)cc1", "Recorded value": "> 100 µM (inactive)"}
{"Molecule": "NNc1nnc(-c2ccccc2)nc1Cc1ccccc1", "Recorded value": "4.17 µM (inactive)"}
{"Molecule": "C/C(=N\\NC(=O)c1ccncc1)c1ccccc1Cl", "Recorded value": "> 100 µM (inactive)"}
{"Molecule": "C=C1C[C@H](O)[C@H]2C(C[Se]c3ccccc3)C(=O)O[C@@H]2[C@H]2[C@H](C)C(O)C[C@@H]12 (some centres not stated)", "Recorded value": "34 µM (inactive)"}

Requested read-out: GI50. Entry: CCOC(=O)C(C)(C)Oc1ccc2c(-c3ccc(Cl)cc3)cc(=O)oc2c1 > 100 µM (inactive)

Requested read-out: GI50. Entry: COc1ccc(C2C=C(c3ccc(C)cc3)N(c3ccc(OC)cc3[N+](=O)[O-])C3C(=O)OC(=O)C23)c(OC)c1 (configuration not stated) 71.3 µM (inactive)

----------
Test system: MDA-N
Assay: NCI tumour cell line growth inhibition, 48 h
Calls of active or inactive are those of the source. Rule as the data show it: active = GI50 up to about 1.1 µM and inactive = higher.
Overview of reported GI50 across a group of molecules:

Use these answered entries as a reference point.
{"Molecule": "C[C@@H]1C[C@H](O)[C@]2(O)O[C@@H]3C[C@@]4(C=O)[C@@H](CC[C@@H]5[C@@H]4CC[C@]4(C)[C@@H](C6=CC(=O)OC6)CC[C@]54O)C[C@H]3O[C@@H]2O1", "Property": "GI50", "Recorded value": "0.0692 µM (active)"}
{"Molecule": "c1ccc2c(C3CCN(CCN4CCOCC4)C3)c[nH]c2c1 (centres undefined)", "Property": "GI50", "Recorded value": "> 100 µM (inactive)"}
{"Molecule": "Cc1nn(C(=O)c2ccncc2)c2c1C(c1ccccc1O)SC(=N)N2 (centres undefined)", "Property": "GI50", "Recorded value": "> 10 µM (inactive)"}
{"Molecule": "CCc1nc2cc3cccnc3c(Cl)c2[nH]c1=O", "Property": "GI50", "Recorded value": "> 100 µM (inactive)"}

For the record CN(C)c1ccc(/C=C(\C#N)C(N)=C(C#N)C#N)cc1 , what value of GI50 is listed for MDA-N? > 100 µM (inactive)

For the record CCCCCCCCCCCCCCCCCC(=O)OCC(COC1OC(CS(=O)(=O)O)C(O)C(O)C1O)OC(=O)CCCCCCCCCCCCCCCCC (centres undefined) , what value of GI50 is listed for MDA-N? > 100 µM (inactive)

For the record COc1ccc2ccccc2c1/C=C/C(=O)c1ccccc1 , what value of GI50 is listed for MDA-N? 2.94 µM (inactive)

For the record c1csc(-c2sc(-c3ccsc3)cc2Cc2ccsc2)c1 , what value of GI50 is listed for MDA-N? > 10 µM (inactive)

For the record COc1ccc2oc(=O)c3c(c2c1C)OC(C)(C)C=C3 , what value of GI50 is listed for MDA-N? > 100 µM (inactive)

For the record CCOC(=O)Cn1c(=O)c2nc(SC)sc2n(-c2ccccc2)c1=S , what value of GI50 is listed for MDA-N? 40.8 µM (inactive)

For the record COc1cccc2c1-c1c(OC)cccc1SS2 , what value of GI50 is listed for MDA-N? 2.67 µM (inactive)

For the record Nc1ccc2c(=O)cc(-c3cccs3)[nH]c2n1 , what value of GI50 is listed for MDA-N? 0.223 µM (active)

For the record Cc1cc(C)n(C(=O)C(C)Sc2nnc(SC(C)C(=O)n3nc(C)cc3C)s2)n1 (centres undefined) , what value of GI50 is listed for MDA-N? > 100 µM (inactive)

For the record O=C1CCc2ccc3c(c21)CC1(Cc2ccccc2C1)C3 , what value of GI50 is listed for MDA-N? 2.69 µM (inactive)

For the record COC(=O)[C@@H]1C[C@]2(Br)c3ccccc3N(S(=O)(=O)c3ccccc3)[C@@H]2N1C(=O)OC , what value of GI50 is listed for MDA-N? > 100 µM (inactive)

For the record O=C1Nc2ccccc2/C1=N/Nc1ccccc1Cl , what value of GI50 is listed for MDA-N? 95.5 µM (inactive)

For the record O=C1c2ccccc2C2CNC1(O)c1ccccc12 (centres undefined) , what value of GI50 is listed for MDA-N? > 100 µM (inactive)

----------
System: COLO 205
Experiment: NCI tumour cell line growth inhibition, 48 h
Activity calls are given as the source filed them. No stated cut-off is given here; in the data, active = GI50 up to about 1.1 µM and inactive = higher.
Property: GI50

Use these answered entries as a reference point.
{"Compound": "Cc1ccc2c(O)cc(-c3ccc(Cl)cc3)nc2n1", "Property": "GI50", "Recorded value": "1.85 µM (inactive)"}
{"Compound": "Nc1ccc(Nc2nc(F)nc(-c3c4ccccc4c4n3CCS4)n2)cc1", "Property": "GI50", "Recorded value": "19.1 µM (inactive)"}
{"Compound": "Cc1cc(Cl)ccc1NC1=NC(=O)C(CC(=O)Nc2ccc([N+](=O)[O-])cc2[N+](=O)[O-])S1 (stereo unspecified)", "Property": "GI50", "Recorded value": "36.6 µM (inactive)"}
{"Compound": "CC(=O)/C=C/C1=C(C)CCCC1(C)CC(C)C (stereo unspecified)", "Property": "GI50", "Recorded value": "30.3 µM (inactive)"}
{"Compound": "NC(=O)c1ccc[n+](C2=C([N-]S(=O)(=O)c3ccccc3)C(=O)c3ccccc3C2=O)c1", "Property": "GI50", "Recorded value": "12.8 µM (inactive)"}

Requested read-out: GI50. Entry: Cc1c(-c2ccccc2)[nH]n(C2=NCCN2)c1=O > 100 µM (inactive)

The measurements presented in this section are drawn from ChEMBL document CHEMBL1201862.
